experiment notes: Plasma concentration in Sprague-Dawley rat at 10 mg/kg, po measured at 8 hrs by LC-MS/MS analysis
Format: ADME, organism-based
Design: dose 10 mg/kg, route oral
property: concentration at 8 h (ng/mL)
Provide only the numeric value, understood in ng/mL.

[ask] May I ask what concentration at 8 h has been recorded for `Cc1cc(C(=O)N2CCc3c(sc(NCc4ccccc4)c3C#N)C2)[nH]n1` ?
[reply] 70

* * *

experiment notes: Drug uptake in Sprague-Dawley rat brain at 10 mg/kg, po measured at 2 hrs by LC-MS/MS analysis
Type: ADME, organism-based
Design: dose 10 mg/kg, route oral
condition context: read-out: Drug uptake
property: concentration at 2 h (ng/mL)
Provide only the numeric value, understood in ng/mL.

[ask] May I ask what concentration at 2 h has been recorded for `Cc1cc(C(=O)N2CCc3c(sc(NCc4ccccc4)c3C#N)C2)[nH]n1` ?
[reply] 156

* * *

experiment notes: Metabolic stability in human liver microsomes assessed as compound remaining at 1 uM after 30 mins by LC-MS/MS analysis in presence of NADPH
Format: ADME
condition context: read-out: Stability
Friendly reminder: remaining at 0.5 h, 1 µM below 30% is 1.0, at or above is 0.0.

For orientation, consider the following solved cases.
COc1cccc(CNc2sc3c(c2C#N)CCN(C(=O)c2ccc(F)cc2)C3)c1 1.0
N#Cc1c(NCc2ccccc2)sc2c1CCN(C(=O)c1ccc(F)cc1)C2 0.0

[ask] Below 30% on remaining at 0.5 h, 1 µM? Entry `N#Cc1c(NCc2ccc(F)cc2)sc2c1CCN(C(=O)c1ccccc1)C2`
[reply] 0.0

[ask] # repeat for `Cc1cccc(C(=O)N2CCc3c(sc(NCc4ccccc4)c3C#N)C2)c1`
[reply] 1.0

[ask] # repeat for `Cc1cc(C(=O)N2CCc3c(sc(NCc4ccccc4)c3C#N)C2)[nH]n1`
[reply] 0.0

* * *

experiment notes: Drug uptake in Sprague-Dawley rat brain at 10 mg/kg, iv measured at 2 hrs by LC-MS/MS analysis
Assay type: ADME, organism-based
Design: dose 10 mg/kg, route intravenous
condition context: read-out: Drug uptake
property: concentration at 2 h (ng/mL)
Provide only the numeric value, understood in ng/mL.

[ask] May I ask what concentration at 2 h has been recorded for `Cc1cc(C(=O)N2CCc3c(sc(NCc4ccccc4)c3C#N)C2)[nH]n1` ?
[reply] 138

* * *

experiment notes: AUClast in Sprague-Dawley rat at 10 mg/kg, po by LC-MS/MS analysis
Assay type: ADME, organism-based
Set-up: time 0 - last, dose 10 mg/kg, route oral
condition context: plasma
property: AUC(0-t) (ng·h/mL)
Provide only the numeric value, understood in ng·h/mL.

[ask] May I ask what AUC(0-t) has been recorded for `Cc1cc(C(=O)N2CCc3c(sc(NCc4ccccc4)c3C#N)C2)[nH]n1` ?
[reply] 4090

* * *

system under test: Metabotropic glutamate receptor 1 (Homo sapiens, UniProt Q13255)
Sequence (Q13255 19-1194 limits assumed): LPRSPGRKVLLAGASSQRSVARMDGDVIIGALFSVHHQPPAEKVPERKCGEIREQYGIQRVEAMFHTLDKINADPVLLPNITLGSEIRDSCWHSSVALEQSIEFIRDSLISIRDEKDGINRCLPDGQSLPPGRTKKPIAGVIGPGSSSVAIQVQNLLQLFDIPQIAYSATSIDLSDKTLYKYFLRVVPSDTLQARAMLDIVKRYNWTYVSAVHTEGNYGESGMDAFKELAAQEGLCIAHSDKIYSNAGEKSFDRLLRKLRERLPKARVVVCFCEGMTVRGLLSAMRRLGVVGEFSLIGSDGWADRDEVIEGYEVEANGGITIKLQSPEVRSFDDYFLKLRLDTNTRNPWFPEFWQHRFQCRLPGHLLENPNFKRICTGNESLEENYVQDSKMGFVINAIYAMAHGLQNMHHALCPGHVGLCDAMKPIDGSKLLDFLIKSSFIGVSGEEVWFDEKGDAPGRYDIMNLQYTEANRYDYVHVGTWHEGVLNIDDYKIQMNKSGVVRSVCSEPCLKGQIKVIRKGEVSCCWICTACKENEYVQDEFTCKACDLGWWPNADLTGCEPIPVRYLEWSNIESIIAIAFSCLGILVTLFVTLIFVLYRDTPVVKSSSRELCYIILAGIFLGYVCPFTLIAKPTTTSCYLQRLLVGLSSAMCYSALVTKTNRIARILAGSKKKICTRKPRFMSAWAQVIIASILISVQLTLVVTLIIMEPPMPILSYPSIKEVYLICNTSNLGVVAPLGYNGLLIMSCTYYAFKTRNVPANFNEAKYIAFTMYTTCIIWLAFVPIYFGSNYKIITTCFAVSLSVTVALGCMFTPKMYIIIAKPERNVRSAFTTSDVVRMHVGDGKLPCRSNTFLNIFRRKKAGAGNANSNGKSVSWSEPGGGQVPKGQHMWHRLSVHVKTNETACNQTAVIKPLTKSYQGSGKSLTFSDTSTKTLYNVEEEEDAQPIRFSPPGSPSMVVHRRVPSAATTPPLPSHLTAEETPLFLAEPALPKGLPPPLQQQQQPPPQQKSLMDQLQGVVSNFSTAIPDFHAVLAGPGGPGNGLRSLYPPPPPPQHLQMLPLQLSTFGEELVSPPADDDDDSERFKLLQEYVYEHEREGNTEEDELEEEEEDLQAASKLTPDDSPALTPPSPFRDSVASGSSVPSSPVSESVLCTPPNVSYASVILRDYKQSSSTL
experiment notes: Antagonist activity at human mGluR1 expressed in human Chem-3 cells assessed as inhibition of L-glutamate-induced calcium release at 10 uM by calcium-5 reagent-based fluorescence assay relative to control
Format: functional, cell-based
# cutoff 60% applies to inhibition; >= gives Yes, < gives No

CC(C)c1cc(C(=O)N2CCc3c(sc(NC(=O)c4ccc(Cl)cc4)c3C#N)C2)[nH]n1 Yes
N#Cc1c(NCc2cccc(F)c2)sc2c1CCN(C(=O)c1ccccc1)C2 Yes
COc1cccc(CNc2sc3c(c2C#N)CCN(C(=O)c2cccc(F)c2)C3)c1 No
Cc1cc(C(=O)N2CCc3c(sc(NCc4ccc(Cl)cc4)c3C#N)C2)[nH]n1 No
N#Cc1ccc(CNc2sc3c(c2C#N)CCN(C(=O)c2ccccc2)C3)cc1 No

[ask] Answer whether inhibition of `Cc1cc(C(=O)N2CCc3c(sc(NC(=O)c4ccccc4)c3C#N)C2)[nH]n1` is greater than or equal to 60%.
[reply] No

[ask] # repeat for `CC(C)c1cc(C(=O)N2CCc3c(sc(NC(=O)c4ccccc4)c3C#N)C2)[nH]n1`
[reply] No

[ask] # repeat for `Cc1cc(C(=O)N2CCc3c(sc(NCc4ccc(F)cc4)c3C#N)C2)[nH]n1`
[reply] Yes

[ask] # repeat for `N#Cc1c(NCc2cccc(F)c2)sc2c1CCN(C(=O)c1ccc(F)cc1)C2`
[reply] Yes

[ask] # repeat for `N#Cc1c(NCc2ccc(Cl)cc2)sc2c1CCN(C(=O)c1ccc(F)cc1)C2`
[reply] No
